// reported CYP inhibition (% of control) 2C19 per item
# MEASURED_ON: CYP2C19 (Homo sapiens (Human), UniProt P33261)
# Sequence (P33261 whole entry): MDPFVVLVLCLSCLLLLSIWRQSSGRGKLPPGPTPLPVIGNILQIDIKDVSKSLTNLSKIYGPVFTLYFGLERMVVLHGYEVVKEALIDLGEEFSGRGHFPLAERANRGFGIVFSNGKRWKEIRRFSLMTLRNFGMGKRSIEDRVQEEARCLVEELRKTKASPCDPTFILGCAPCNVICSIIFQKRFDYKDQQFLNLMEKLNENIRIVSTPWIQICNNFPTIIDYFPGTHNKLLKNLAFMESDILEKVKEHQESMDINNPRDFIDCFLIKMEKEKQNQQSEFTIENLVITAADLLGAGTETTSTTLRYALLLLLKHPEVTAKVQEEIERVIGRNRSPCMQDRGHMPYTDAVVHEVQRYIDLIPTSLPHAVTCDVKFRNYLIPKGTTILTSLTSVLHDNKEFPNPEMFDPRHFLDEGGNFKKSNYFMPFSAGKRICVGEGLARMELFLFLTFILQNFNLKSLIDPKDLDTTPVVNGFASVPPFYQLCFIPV
# PROTOCOL_SUMMARY: Cytochrome P450 activity inhibition, CYP2C19
# Type: in vitro ADME
# CONDITION_SUMMARY: 10 μM, human liver microsomes, S-mephenytoin substrate
OBSERVABLE: CYP inhibition (% of control) 2C19

[
  {
    "COMPOUND": "CN1CCN(c2ccc(/C(=C(/CCCO)c3ccccc3)c3ccc(O)cc3)cc2)CC1 [Compound 18d]",
    "OBSERVABLE": "CYP inhibition (% of control) 2C19",
    "VALUE_REPORTED": "81.2 % of control"
  },
  {
    "COMPOUND": "CC(C)N1CCN(c2ccc(/C(=C(/CCCO)c3ccccc3)c3ccc(Br)cc3)cc2)CC1 [Compound 18h]",
    "OBSERVABLE": "CYP inhibition (% of control) 2C19",
    "VALUE_REPORTED": "86.3 % of control"
  },
  {
    "COMPOUND": "CCN1CCC(c2ccc(C(=C(CCCO)c3ccccc3)c3cccc(O)c3)cc2)CC1 [Compound 22ae]",
    "OBSERVABLE": "CYP inhibition (% of control) 2C19",
    "VALUE_REPORTED": ">100 % of control"
  },
  {
    "COMPOUND": "CC(C)N1CCN(c2ccc(/C(=C(/CCCO)c3ccccc3)c3ccc(N)cc3)cc2)CC1 [Compound 26b]",
    "OBSERVABLE": "CYP inhibition (% of control) 2C19",
    "VALUE_REPORTED": "98.7 % of control"
  },
  {
    "COMPOUND": "CC(C)N1CCC(c2ccc(/C(=C(/CCCO)c3ccccc3)c3cccc(O)c3)cc2)CC1 [Compound 22h]",
    "OBSERVABLE": "CYP inhibition (% of control) 2C19",
    "VALUE_REPORTED": ">100 % of control"
  },
  {
    "COMPOUND": "CC(C)N1CCN(c2ccc(/C(=C(/CCCO)c3ccccc3)c3ccc(Br)cc3)cc2)CC1 [Compound 18e]",
    "OBSERVABLE": "CYP inhibition (% of control) 2C19",
    "VALUE_REPORTED": "84.6 % of control"
  },
  {
    "COMPOUND": "CC(C)(C)OC(=O)N1CC(c2ccc(/C(=C(/CCCO)c3ccccc3)c3ccc(O)cc3)cc2)C1 [Compound 18t]",
    "OBSERVABLE": "CYP inhibition (% of control) 2C19",
    "VALUE_REPORTED": "93 % of control"
  },
  {
    "COMPOUND": "Cc1ccc(/C(=C(\\CCCO)c2ccccc2)c2ccc(N3CCN(C(C)C)CC3)cc2)cc1 [Compound 18b]",
    "OBSERVABLE": "CYP inhibition (% of control) 2C19",
    "VALUE_REPORTED": "69.7 % of control"
  }
]

* * *

# PROTOCOL_SUMMARY: in vivo
# Assay type: in vivo
# CONDITION_SUMMARY: rat, PO, 10 mg/kg; read-out: Cmax
// reported Cmax per item
OBSERVABLE: Cmax

[
  {
    "COMPOUND": "OCCC/C(=C(/c1ccc(C2CCN(C3CC3)CC2)cc1)c1cccc(O)c1)c1ccccc1 [Compound 22r]",
    "VALUE_REPORTED": "1510 nM"
  },
  {
    "COMPOUND": "Cc1ccc(/C(=C(\\CCCO)c2ccccc2)c2ccc(N3CCN(C)CC3)cc2)cc1 [Compound 18f]",
    "VALUE_REPORTED": "450 nM"
  },
  {
    "COMPOUND": "CC(C)N1CCC(c2ccc(/C(=C(/CCCO)c3ccccc3)c3ccc(O)cc3)cc2)C1 (racemic) [Compound 22s]",
    "VALUE_REPORTED": "20 nM"
  },
  {
    "COMPOUND": "CC(C)N1CCN(c2ccc(C(=C(CCCO)c3ccccc3)c3ccc(O)cc3)cc2)CC1 [Compound 18a]",
    "VALUE_REPORTED": "210 nM"
  },
  {
    "COMPOUND": "CC(C)N1CCC(c2ccc(/C(=C(/CCCO)c3ccccc3)c3cccc(O)c3)cc2)CC1 [Compound 22m]",
    "VALUE_REPORTED": "130 nM"
  },
  {
    "COMPOUND": "CC(C)N1CCN(c2ccc(/C(=C(/CCCO)c3ccccc3)c3ccc(Br)cc3)cc2)CC1 [Compound 18e]",
    "VALUE_REPORTED": "10 nM"
  },
  {
    "COMPOUND": "CCN1CCN(c2ccc(/C(=C(/CCCO)c3ccccc3)c3ccc(C)cc3)cc2)CC1 [Compound 18j]",
    "VALUE_REPORTED": "210 nM"
  },
  {
    "COMPOUND": "Cc1ccc(/C(=C(\\CCCO)c2ccccc2)c2ccc(N3CCN(C(C)C)CC3)cc2)cc1 [Compound 18b]",
    "VALUE_REPORTED": "120 nM"
  },
  {
    "COMPOUND": "OCCC/C(=C(\\c1ccc(O)cc1)c1ccc(C2CCN(C3CC3)CC2)cc1)c1ccccc1 [Compound 22i]",
    "VALUE_REPORTED": "380 nM"
  }
]

* * *

# PROTOCOL_SUMMARY: in vivo
# Type: in vivo
# CONDITION_SUMMARY: rat, IV, 1 mg/kg
OBSERVABLE: AUCINF

[
  {
    "COMPOUND": "CCN1CCN(c2ccc(/C(=C(/CCCO)c3ccccc3)c3ccc(C)cc3)cc2)CC1 [Compound 18j]",
    "OBSERVABLE": "AUCINF",
    "VALUE_REPORTED": "0.60 μMh"
  },
  {
    "COMPOUND": "OCCC/C(=C(/c1ccc(C2CCN(C3CC3)CC2)cc1)c1cccc(O)c1)c1ccccc1 [Compound 22r]",
    "OBSERVABLE": "AUCINF",
    "VALUE_REPORTED": "0.87 μMh"
  },
  {
    "COMPOUND": "CN(C)CCOc1ccc(/C(=C(/CCCO)c2ccccc2)c2ccc(O)cc2)cc1 [GSK5182, reference compound]",
    "OBSERVABLE": "AUCINF",
    "VALUE_REPORTED": "0.94 μMh"
  },
  {
    "COMPOUND": "Cc1ccc(/C(=C(\\CCCO)c2ccccc2)c2ccc(N3CCN(C)CC3)cc2)cc1 [Compound 18f]",
    "OBSERVABLE": "AUCINF",
    "VALUE_REPORTED": "0.29 μMh"
  }
]

* * *

// reported MS(Microsomal Stability) (%) human per item
# CONDITION_SUMMARY: 1 μM, 30 minutes, 37° C., NADPH

[
  {
    "COMPOUND": "OCCC/C(=C(\\c1ccc(O)cc1)c1ccc(OCCN2CCOCC2)cc1)c1ccccc1",
    "UNIT_STRING": "%",
    "MS(Microsomal Stability) (%) human": 128.0
  },
  {
    "COMPOUND": "Cc1ccc(/C(=C(\\CCCO)c2ccccc2)c2ccc(C3CNC3)cc2)cc1 [Compound 20d]",
    "UNIT_STRING": "%",
    "MS(Microsomal Stability) (%) human": 83
  },
  {
    "COMPOUND": "CC(C)N1CCN(c2ccc(/C(=C(/CCCO)c3ccccc3)c3ccc([N+](=O)[O-])cc3)cc2)CC1 [Compound 18g]",
    "UNIT_STRING": "%",
    "MS(Microsomal Stability) (%) human": 87.9
  },
  {
    "COMPOUND": "OCCC/C(=C(\\c1ccc(O)cc1)c1ccc(N2CCN(C3CCCCC3)CC2)cc1)c1ccccc1 [Compound 22p]",
    "UNIT_STRING": "%",
    "MS(Microsomal Stability) (%) human": 72.3
  },
  {
    "COMPOUND": "OCCC/C(=C(\\c1ccc(O)cc1)c1ccc(OCCN2C[C@H]3CNC[C@H]3C2)cc1)c1ccccc1",
    "UNIT_STRING": "%",
    "MS(Microsomal Stability) (%) human": 64.7
  },
  {
    "COMPOUND": "Cc1ccc(/C(=C(\\CCCO)c2ccccc2)c2ccc(N3CCNCC3)cc2)cc1 [Compound 20b]",
    "UNIT_STRING": "%",
    "MS(Microsomal Stability) (%) human": 44
  },
  {
    "COMPOUND": "Nc1ccc(/C(=C(\\CCCO)c2ccccc2)c2ccc(C3CCN(C4CC4)CC3)cc2)cc1 [Compound 26d]",
    "UNIT_STRING": "%",
    "MS(Microsomal Stability) (%) human": 77.5
  },
  {
    "COMPOUND": "OCCC/C(=C(\\c1ccc(Br)cc1)c1ccc(C2CNC2)cc1)c1ccccc1 [Compound 20f]",
    "UNIT_STRING": "%",
    "MS(Microsomal Stability) (%) human": 83.9
  },
  {
    "COMPOUND": "CC(C)(C)OC(=O)N1CC(c2ccc(/C(=C(/CCCO)c3ccccc3)c3ccc(O)cc3)cc2)C1 [Compound 18t]",
    "UNIT_STRING": "%",
    "MS(Microsomal Stability) (%) human": 66.9
  },
  {
    "COMPOUND": "OCCC/C(=C(\\c1ccc(O)cc1)c1ccc(N2CCN(C3CCC3)CC2)cc1)c1ccccc1 [Compound 22q]",
    "UNIT_STRING": "%",
    "MS(Microsomal Stability) (%) human": 63.7
  },
  {
    "COMPOUND": "CC(C)N1CCN(c2ccc(/C(=C(/CCCO)c3ccccc3)c3cccc(O)c3)cc2)CC1 [Compound 18k]",
    "UNIT_STRING": "%",
    "MS(Microsomal Stability) (%) human": 65.4
  },
  {
    "COMPOUND": "CC(=O)Nc1ccc(/C(=C(\\CCCO)c2ccccc2)c2ccc(C3CCN(C4CC4)CC3)cc2)cc1 [Compound 27c]",
    "UNIT_STRING": "%",
    "MS(Microsomal Stability) (%) human": 83.5
  },
  {
    "COMPOUND": "OCCC/C(=C(\\c1ccc(Br)cc1)c1ccc(N2CCNCC2)cc1)c1ccccc1 [Compound 20a]",
    "UNIT_STRING": "%",
    "MS(Microsomal Stability) (%) human": 65.1
  },
  {
    "COMPOUND": "CC(C)N1CCC(c2ccc(/C(=C(/CCCO)c3ccccc3)c3ccc(O)cc3)cc2)C1 (racemic) [Compound 22s]",
    "UNIT_STRING": "%",
    "MS(Microsomal Stability) (%) human": 34.9
  },
  {
    "COMPOUND": "OCCC/C(=C(\\c1ccc(O)cc1)c1ccc(N2CCN(C3CCCC3)CC2)cc1)c1ccccc1 [Compound 22n]",
    "UNIT_STRING": "%",
    "MS(Microsomal Stability) (%) human": 56.3
  },
  {
    "COMPOUND": "CN1CCN(c2ccc(/C(=C(/CCCO)c3ccccc3)c3ccc(OC(=O)C(C)(C)C)cc3)cc2)CC1 [Compound 28e]",
    "UNIT_STRING": "%",
    "MS(Microsomal Stability) (%) human": 56.4
  }
]
